Origin of the recorded values: ChEMBL document CHEMBL1121381

Species: Felis catus
protocol-notes: Percentage inhibition of depressor response in cat was determined
Format: functional
Set-up: concentration or dose not given beside the values
Catalogue of compounds with associated Inhibition
The answer is to be given in %; state only the numeric part.

Asked: Consider the compound O=C(NCCNCC(O)c1ccccc1)c1ccc(O)cc1 (configuration not stated) and give its measured Inhibition.
Given back: 10

Continuing:
Asked: Suppose we examine the compound CC(CNC(=O)C1CCCCC1)NCC(O)c1ccccc1 (configuration not stated) ; what Inhibition value has been reported?
Given back: 19

Asked: Recorded Inhibition for O=C(Cc1ccccc1)NCCNCC(O)c1ccccc1 (configuration not stated) , please?
Given back: 6

Asked: Reported Inhibition for CC(C)(CNC(=O)Cc1ccccc1)NCC(O)c1ccccc1.O=C(O)/C=C/C(=O)O (configuration not stated) : what is it?
Given back: 28

Asked: GET /values?readout=Inhibition&item= CC(C)C(=O)NCC(C)(C)NCC(O)c1ccccc1 (configuration not stated)
Given back: 9

Asked: // query Inhibition value for entry CC(CNC(=O)Cc1ccccc1)NCC(O)c1ccccc1 (configuration not stated)
Given back: 36

Asked: Reported Inhibition for CC(CNC(=O)Cc1ccccc1Cl)NCC(O)c1ccccc1 (configuration not stated) : what is it?
Given back: 19

Asked: Could you share which Inhibition value was measured for C=CCNC(=O)NCCNCC(O)c1ccccc1 (configuration not stated) ?
Given back: 0

Asked: Report Inhibition for COc1ccc(CC(=O)NCCNCC(O)c2ccccc2)cc1 (configuration not stated) please.
Given back: 24

Asked: Query: Inhibition; subject: COc1ccc(C(O)CNCCNC(=O)C(C)C)cc1 (configuration not stated)
Given back: 0

Asked: Value lookup for Inhibition; key = O=C(Cc1ccccc1)NCCNCC(O)c1ccccc1Cl.O=C(O)/C=C/C(=O)O (configuration not stated)
Given back: 45

Asked: Which value of Inhibition has been reported for O=[N+]([O-])c1ccccc1S(=O)(=O)NCCNCC(O)c1ccccc1 (configuration not stated) in the records?
Given back: 23
